Quick reference for tissue uptake at 1 h among some molecules
- method: in vivo
- cond: swiss nude, mouse, tumor, iv
Numbered stars: 1 amine (or outer) side, 2 acyl side, 3 side chain; on linkers, the order of the positions; unused ones are H or OH. Bridge positions count the residues as written; N and C are the ends. Square brackets hold non-standard residues; d marks the D form. Peptide text beside a SMILES is read from it. * marks the point of attachment. X6 = NCCNCC(CNCCN)C(=O)NCCOCCOCCOCCOCCOCCOCCC(=O)NCCCOCCOCCOCCCN*; X1 = NCCNCC(CNCCN)C(=O)N1CCN(CC(=O)NCCCOCCOCCOCCCN*)CC1; mXylylene = c1cc(C[*:1])cc(C[*:2])c1; Suc = O=C(CCC(=O)[*:2])[*:1]; Nle = CCCC[C@H](N)C(=O)O

molecule | value-units | tissue uptake at 1 h
CCCC[C@H](NC(=O)CCC(=O)NCCCOCCOCCOCCCNC(=O)CN1CCN(C(=O)C(CNCCN)CNCCN)CC1)C(=O)N[C@H]1CSCc2cccc(c2)CSC[C@@H](C(=O)O)NC(=O)[C@H](Cc2ccccc2)NC(=O)[C@H](CCC(=O)O)NC(=O)[C@H]([C@@H](C)O)NC(=O)[C@@H]2CCCN2C(=O)[C@@H]2CCCN2C1=O [3BP-4782] ({X1-Suc}-[Nle]CPPTEFC-OH; linker 2-8 via mXylylene) | %ID/g | 6.2
CCCC[C@H](NC(=O)CCC(=O)NCCCOCCOCCOCCCNC(=O)C(CNCCN)CNCCN)C(=O)N[C@H]1CSCc2cncc(c2)CSCC(C(=O)O)NC(=O)[C@H](Cc2ccccc2)NC(=O)[C@H](CCC(N)=O)NC(=O)[C@H]([C@@H](C)O)NC(=O)[C@@H]2CCCN2C(=O)[C@@H]2CCCN2C1=O (stereo partly drawn) | %ID/g | 6.04
CCCC[C@H](NC(=O)CCC(=O)NCCCOCCOCCOCCCNC(=O)CN1CCN(C(=O)C(CNCCN)CNCCN)CC1)C(=O)N[C@H]1CSCc2cccc(c2)CSC[C@@H](C(=O)NCCC(=O)O)NC(=O)[C@H](Cc2ccccc2)NC(=O)[C@H](CCC(N)=O)NC(=O)[C@H]([C@@H](C)O)NC(=O)[C@@H]2CCCN2C(=O)[C@@H]2CCCN2C1=O | %ID/g | 10.5
CCCC[C@H](NC(=O)CCC(=O)NCCCOCCOCCOCCCNC(=O)CCOCCOCCOCCOCCOCCOCCNC(=O)C(CNCCN)CNCCN)C(=O)N[C@H]1CSCc2cccc(c2)CSCC(C(=O)O)NC(=O)[C@H](Cc2ccccc2)NC(=O)[C@H](CCC(N)=O)NC(=O)[C@H]([C@@H](C)O)NC(=O)[C@@H]2CCCN2C(=O)[C@@H]2CCCN2C1=O (stereo partly drawn) | %ID/g | 7.92
CCCC[C@H](NC(=O)CCC(=O)NCCCOCCOCCOCCCNC(=O)CN1CCN(C(=O)C(CNCCN)CNCCN)CC1)C(=O)N[C@H]1CSCc2cccc(c2)CSC[C@@H](C(=O)N[C@@H](CC(=O)O)C(=O)O)NC(=O)[C@H](Cc2ccccc2)NC(=O)[C@H](CCC(=O)O)NC(=O)[C@H]([C@@H](C)O)NC(=O)[C@@H]2CCCN2C(=O)[C@@H]2CCCN2C1=O [3BP-4785] ({X1-Suc}-[Nle]CPPTEFCD-OH; linker 2-8 via mXylylene) | %ID/g | 4.2
CCCC[C@H](NC(=O)CCC(=O)NCCCOCCOCCOCCCNC(=O)CCOCCOCCOCCOCCOCCOCCNC(=O)C(CNCCN)CNCCN)C(=O)N[C@H]1CSCc2cccc(c2)CSC[C@@H](C(=O)O)NC(=O)[C@H](Cc2ccccc2)NC(=O)[C@H](CCC(=O)O)NC(=O)[C@H]([C@@H](C)O)NC(=O)[C@@H]2CCCN2C(=O)[C@@H]2CCCN2C1=O [3BP-4780] ({X6-Suc}-[Nle]CPPTEFC-OH; linker 2-8 via mXylylene) | %ID/g | 6.71
